Tested on: RAW-Dual (murine macrophage reporter line)
Experiment: IRF reporter (Lucia luciferase) activity fold change vs agonist alone; higher = enhanced IRF activity
Conditions: modulator concentration 10 µM; agonist: LPS 0.1 ug/mL
Item-by-item account of IRF reporter
endpoint: IRF reporter

[[record]]
compound = "CC(NC(=O)c1nc2ccccc2[nH]1)c1ccc(Br)cc1 (centres undefined)"
endpoint = "IRF reporter"
reading = 1

[[record]]
compound = "Br.Cc1nc(C)c(-c2csc(Nc3cccc(C(=O)O)c3)n2)s1"
endpoint = "IRF reporter"
reading = 1.36

[[record]]
compound = "O=C(OCCO)c1cc(Cl)c(C(=O)OCCO)cc1Cl"
endpoint = "IRF reporter"
reading = 1.49

[[record]]
compound = "COc1ccccc1C=C(C#N)c1nc(-c2cc3cc(Br)ccc3oc2=O)cs1"
endpoint = "IRF reporter"
reading = 1.31

[[record]]
compound = "CCOP(C)(=O)C(c1ccccc1)N(C)S(C)(=O)=O (centres undefined)"
endpoint = "IRF reporter"
reading = 1.66

[[record]]
compound = "CC(O)(CNC(=O)CSc1ccc(F)cc1)c1ccc(-c2ccccc2)cc1 (centres undefined)"
endpoint = "IRF reporter"
reading = 1.11

[[record]]
compound = "Cc1ccc(OCCCOc2cccc3cccnc23)c(C)c1"
endpoint = "IRF reporter"
reading = 1.26

[[record]]
compound = "Cc1cc(OCC(=O)NN=Cc2ccc(O)c([N+](=O)[O-])c2)ccc1Cl"
endpoint = "IRF reporter"
reading = 1.08

[[record]]
compound = "Cl.Clc1ccccc1CN1CCc2sccc2C1"
endpoint = "IRF reporter"
reading = 1.01


###

Item-by-item account of IRF reporter
Tested on: RAW-Dual (murine macrophage reporter line)
Experiment: IRF reporter (Lucia luciferase) activity fold change vs agonist alone; higher = enhanced IRF activity
Conditions: modulator concentration 10 µM; agonist: LPS 0.1 ug/mL
endpoint: IRF reporter

[[record]]
compound = "CCOc1ccc2nc(NC(=O)c3ccc(Br)cc3F)sc2c1"
endpoint = "IRF reporter"
reading = 1.05

[[record]]
compound = "COC(=O)c1ccc2c(c1)NC(=O)/C2=C(\\Nc1ccc(N(C)C(=O)CN2CCN(C)CC2)cc1)c1ccccc1"
endpoint = "IRF reporter"
reading = 0.851

[[record]]
compound = "O=C(NC12CC3CC(CC(C3)C1)C2)N1CCOCC1"
endpoint = "IRF reporter"
reading = 1.22

[[record]]
compound = "COc1ccnc(CS(=O)c2nc3ccc(OC(F)F)cc3[nH]2)c1OC (centres undefined)"
endpoint = "IRF reporter"
reading = 1.07

[[record]]
compound = "N#Cc1cc(-c2n[nH]c(-c3ccncc3)n2)ccn1"
endpoint = "IRF reporter"
reading = 1.13

[[record]]
compound = "CCOc1ccc2nc(N(CCCN(C)C)C(=O)c3ccc(Br)s3)sc2c1.Cl"
endpoint = "IRF reporter"
reading = 1.14

[[record]]
compound = "Cl.Cn1c(=N)n(CC(O)c2ccco2)c2ccccc21 (centres undefined)"
endpoint = "IRF reporter"
reading = 1.46

[[record]]
compound = "Ic1ccc2c3ccc(I)cc3c3[nH]c(-c4ccccc4)nc3c2c1"
endpoint = "IRF reporter"
reading = 1.05

[[record]]
compound = "COc1ccccc1N1CCN(c2ncnc3c2cnn3-c2cc(C)cc(C)c2)CC1"
endpoint = "IRF reporter"
reading = 1.05

[[record]]
compound = "O=[N+]([O-])c1ccc(OCC(O)CN2CCN(c3ccccc3)CC2)cc1 (centres undefined)"
endpoint = "IRF reporter"
reading = 1.42

[[record]]
compound = "CC(C)Oc1ccc(Br)cc1C=C(C#N)c1nn(CCO)c(N)c1C#N"
endpoint = "IRF reporter"
reading = 1.2

[[record]]
compound = "COCCN1C(=O)CN(C2CCN(Cc3cc(OC)cc(OC)c3)CC2)C1=O"
endpoint = "IRF reporter"
reading = 1.09

[[record]]
compound = "O=C(Oc1coc(CSc2ncccn2)cc1=O)c1ccc([N+](=O)[O-])cc1"
endpoint = "IRF reporter"
reading = 1

[[record]]
compound = "CN(C)CCCNc1cc(C(C)(C)C)nc2c(-c3ccccc3)cnn12"
endpoint = "IRF reporter"
reading = 0.0973

[[record]]
compound = "CNC(=O)[C@H](Cc1ccccc1)NC(=O)[C@H](CC(C)C)[C@H](CSc1cccs1)C(=O)NO"
endpoint = "IRF reporter"
reading = 1.05

[[record]]
compound = "CC(=O)N[C@H]1[C@H]([C@H](O)[C@H](O)CO)OC(C(=O)O)=C[C@@H]1NC(=N)N"
endpoint = "IRF reporter"
reading = 1.3

[[record]]
compound = "O=C(Cc1ccccc1)NCC(O)Cn1ccccc1=O (centres undefined)"
endpoint = "IRF reporter"
reading = 1.26

[[record]]
compound = "CC(C)(C)C1CCc2c(sc(NC(=O)c3cccs3)c2C(=O)N2CCCC2)C1 (centres undefined)"
endpoint = "IRF reporter"
reading = 1.14

[[record]]
compound = "COc1ccc(C(=O)NCc2ccc(OCCN(C)C)cc2)cc1OC.Cl"
endpoint = "IRF reporter"
reading = 1.21

[[record]]
compound = "COC(=O)C1C(=O)CC(C)(O)C(C(=O)OC)C1c1ccc2c(c1)OCO2 (centres undefined)"
endpoint = "IRF reporter"
reading = 1.57

[[record]]
compound = "Cc1cnc2c(c1SCC(=O)N1CCc3ccccc31)c(=O)n(C)c(=O)n2C"
endpoint = "IRF reporter"
reading = 1.17

[[record]]
compound = "O=C(CC1CC1)N1CCN(c2cc(C(F)(F)F)ncn2)CC1"
endpoint = "IRF reporter"
reading = 1.04

[[record]]
compound = "O=C(O)C=Cc1ccc(S(=O)(=O)NCc2cccnc2)cc1"
endpoint = "IRF reporter"
reading = 1.46

[[record]]
compound = "CCOc1ccc(-c2cccc(NC(=O)c3c(F)cccc3F)c2)nn1"
endpoint = "IRF reporter"
reading = 1.11

